FYI, the data here is from PubChem BioAssay AID434987.

- Tested on: M. tuberculosis H37Rv growth inhibition with meropenem
- assay name: dose response, H37Rv, with and without meropenem (AID 434987);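 also: growth over 7 days at 37 °C before Alamar Blue read on day 9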
- condition set: measured here: IC90 with meropenem
IC90 values by entry

Examples with answers:
smiles code | IC90
COCCSc1nc2sc3c(c2c(=O)n1-c1ccccc1)CCN(C)C3 | 53.3 µM
CCOc1cccc(/C=N/Nc2nc(N3CCCC3)nc(N3CCCC3)n2)c1O | > 100 µM
O=C(NC1CCCCCCC1)c1ccc(Br)cc1 | > 100 µM
COc1ccc(CC2=C(O)c3ccccc3C(=O)C2=O)cc1 | > 100 µM
Clc1ccc(/C=N/NC2=Nc3cccc4cccc2c34)cc1 | > 100 µM
COc1cccc(NC(=O)C(=O)c2cn(CC(=O)N3CCOCC3)c3ccccc23)c1 | > 100 µM

Give its IC90 value. Item: CCCCNC(=O)c1onc(CSc2ccccc2CC)c1C(=O)O
23.7 µM

For COc1ccccc1/C=N/NC(=S)Nc1cccnc1 then?
> 50 µM

And the next one, COc1ccc(-c2c(C(F)(F)F)oc3cc(OCC(=O)Nc4ccccc4C(F)(F)F)ccc3c2=O)cc1OC ?
> 100 µM

Also need C=C(C)COc1ccc2c(C)c(C)c(=O)oc2c1OCC(=C)C , thanks.
> 100 µM

Continue with CCOC(=O)[C@H]1[C@H]2COc3ccc(Br)cc3[C@@H]2N2C(=O)c3cc(OC)c(OC)cc3NC(=O)[C@@]12C
> 50 µM

Same for Cc1nn(Cc2ccc(Cl)cc2)c(C)c1NC(=O)CSc1nc2c(c(C(F)(F)F)n1)CCc1ccccc1-2
> 100 µM

Now consider O=C(CN1CCC(O)(c2ccc3c(c2)OCO3)CC1)OC1CCCCC1 and answer again.
35.3 µM
